Entries and their EC50
system name: Transient receptor potential cation channel subfamily V member 1 (Rattus norvegicus, UniProt O35433)
Sequence (O35433 whole entry): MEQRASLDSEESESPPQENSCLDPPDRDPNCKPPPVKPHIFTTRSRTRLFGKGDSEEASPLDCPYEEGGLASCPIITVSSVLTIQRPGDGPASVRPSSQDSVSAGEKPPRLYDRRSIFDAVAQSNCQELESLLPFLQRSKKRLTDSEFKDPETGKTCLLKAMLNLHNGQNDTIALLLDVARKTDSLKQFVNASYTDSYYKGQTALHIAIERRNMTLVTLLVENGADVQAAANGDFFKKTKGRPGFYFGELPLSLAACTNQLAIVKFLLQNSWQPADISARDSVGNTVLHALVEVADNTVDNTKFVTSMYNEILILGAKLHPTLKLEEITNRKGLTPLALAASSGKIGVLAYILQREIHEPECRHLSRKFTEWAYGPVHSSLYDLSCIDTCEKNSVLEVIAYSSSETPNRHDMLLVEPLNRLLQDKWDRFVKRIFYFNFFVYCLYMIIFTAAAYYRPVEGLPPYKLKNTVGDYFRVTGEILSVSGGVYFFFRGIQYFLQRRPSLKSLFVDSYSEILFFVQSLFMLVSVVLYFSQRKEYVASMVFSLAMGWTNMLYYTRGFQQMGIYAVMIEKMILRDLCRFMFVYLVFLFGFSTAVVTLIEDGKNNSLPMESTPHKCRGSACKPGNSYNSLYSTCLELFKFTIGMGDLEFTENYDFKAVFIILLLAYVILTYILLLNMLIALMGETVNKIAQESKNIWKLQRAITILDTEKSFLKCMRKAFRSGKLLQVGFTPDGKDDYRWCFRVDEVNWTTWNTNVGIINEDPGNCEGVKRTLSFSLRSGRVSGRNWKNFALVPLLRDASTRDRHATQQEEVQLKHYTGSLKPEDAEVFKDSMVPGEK
assay text: Agonist activity at rat TRPV1 expressed in CHO cells assessed as 45Ca2+ uptake
Assay type: functional, cell-based
run parameters: read-out: EC50
property label: EC50 (nM)

1) C=C(C)[C@@]12C[C@@H](C)C34OC(Cc5ccccc5)(OC1[C@@H]3C=C(COC(=O)Cc1cc(F)c(N)c(OC)c1)C[C@]1(O)C(=O)C(C)=C[C@@H]41)O2 (stereo not given in full): 1.14
2) C=C(C)[C@@]12C[C@@H](C)C34OC(Cc5ccccc5)(OC1[C@@H]3C=C(COC(=O)Cc1ccc(N)c(OC)c1)C[C@]1(O)C(=O)C(C)=C[C@@H]41)O2 (stereo not given in full): 0.46
3) C=C(C)[C@@]12C[C@@H](C)C34OC(Cc5ccccc5)(OC1[C@@H]3C=C(COC(=O)Cc1cc(Br)cc(Br)c1)C[C@]1(O)C(=O)C(C)=C[C@@H]41)O2 (stereo not given in full): 1070
4) C=C(C)[C@@]12C[C@@H](C)C34OC(Cc5ccccc5)(OC1[C@@H]3C=C(COC(=O)Cc1cc(F)c(O)c(OC)c1)C[C@]1(O)C(=O)C(C)=C[C@@H]41)O2 (stereo not given in full): 1.88
5) C=C(C)[C@@]12C[C@@H](C)C34OC(Cc5ccccc5)(OC1[C@@H]3C=C(COC(=O)Cc1cc(Cl)c(O)c(OC)c1)C[C@]1(O)C(=O)C(C)=C[C@@H]41)O2 (stereo not given in full): 5.7
